Biological target: Human Androgen Receptor (Homo sapiens, UniProt P10275)
Sequence (P10275 whole entry): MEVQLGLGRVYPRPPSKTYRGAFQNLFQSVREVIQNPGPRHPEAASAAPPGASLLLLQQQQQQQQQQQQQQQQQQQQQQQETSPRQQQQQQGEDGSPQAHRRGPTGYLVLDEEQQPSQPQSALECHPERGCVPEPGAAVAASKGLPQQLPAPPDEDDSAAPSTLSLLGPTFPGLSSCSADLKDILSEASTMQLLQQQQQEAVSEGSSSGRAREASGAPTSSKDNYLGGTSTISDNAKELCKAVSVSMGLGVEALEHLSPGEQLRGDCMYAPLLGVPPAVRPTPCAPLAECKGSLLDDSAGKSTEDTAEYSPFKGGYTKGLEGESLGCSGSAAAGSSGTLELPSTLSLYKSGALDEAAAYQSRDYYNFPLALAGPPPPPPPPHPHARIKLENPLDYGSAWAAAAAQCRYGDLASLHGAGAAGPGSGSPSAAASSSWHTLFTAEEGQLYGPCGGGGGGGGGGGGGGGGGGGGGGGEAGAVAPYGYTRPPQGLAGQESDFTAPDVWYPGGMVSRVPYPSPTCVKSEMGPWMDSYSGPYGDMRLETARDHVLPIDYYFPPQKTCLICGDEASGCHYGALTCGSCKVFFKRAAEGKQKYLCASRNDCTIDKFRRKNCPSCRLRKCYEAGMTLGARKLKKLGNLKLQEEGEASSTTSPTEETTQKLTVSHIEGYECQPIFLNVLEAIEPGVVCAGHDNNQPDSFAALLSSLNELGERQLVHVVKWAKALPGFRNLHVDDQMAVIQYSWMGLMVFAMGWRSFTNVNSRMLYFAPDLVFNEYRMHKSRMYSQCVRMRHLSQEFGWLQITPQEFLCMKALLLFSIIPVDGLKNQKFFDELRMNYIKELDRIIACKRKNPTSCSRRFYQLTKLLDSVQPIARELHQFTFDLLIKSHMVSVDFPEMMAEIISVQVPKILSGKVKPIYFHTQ
Experiment: Androgen receptor binding assay ([3H]R1881, HAP) in cytosol of HEK-293 cells transfected with hAR
Settings: Table 2; relative to R1881 = 100, transfected cells
Would you mind telling me the reported Human Androgen Receptor Binding (%) RBA R1881 = 100 of each entry?
One number for each entry, in %.

Some entries whose results are on file:
>  <COMPOUND>
N#Cc1ccc(N2CCC(O)(CCOc3ccc(CNC4CCCCC4)cc3)CC2)cc1C(F)(F)F [EM-7332]

>  <MEASURED NUMBER>
1.8

$$$$
>  <COMPOUND>
C[C@@H]1CCC[C@H](C)N1C(=O)c1ccc(OCCC2(O)CCN(c3ccc(C#N)c(C(F)(F)F)c3)CC2)cc1 [EM-7461]

>  <MEASURED NUMBER>
2

$$$$

Here is another compound to look at.
IN: Quick check: Human Androgen Receptor Binding (%) RBA R1881 = 100 of N#Cc1ccc(N2CCC(O)(CCOc3cccc(CN4CCCC4)c3)CC2)cc1C(F)(F)F [EM-8059] ?
OUT: 1.0

###

Answer each item with its documented Human Androgen Receptor Binding (%) RBA R1881 = 100.
Target: Human Androgen Receptor (Homo sapiens, UniProt P10275)
Test: Androgen receptor binding assay ([3H]R1881, HAP) in cytosol of HEK-293 cells transfected with hAR
Details: Table 2; relative to R1881 = 100, transfected cells

# annotated cases, reported Human Androgen Receptor Binding (%) RBA R1881 = 100 shown
>  <MOLECULE>
CCC(c1ccc(OCCC2(O)CCN(c3ccc(C#N)c(C(F)(F)F)c3)CC2)cc1)N1CCCC1 (centres unmarked)

>  <RESULT>
10.3%

$$$$
>  <MOLECULE>
CCC(NC1CCCCC1)c1ccc(COCCN2CCN(c3ccc(C#N)c(C(F)(F)F)c3)CC2)cc1 (centres unmarked)

>  <RESULT>
<1.0%

$$$$
>  <MOLECULE>
CCC(c1ccc(OCCC2(O)CCN(c3ccc(C#N)c(C(F)(F)F)c3)CC2)c(C)c1C)N1CCCC1 (centres unmarked)

>  <RESULT>
1.0%

$$$$

Field: Human Androgen Receptor Binding (%) RBA R1881 = 100. Fill in for each record below.
1. N#Cc1ccc(N2CCC(O)(CCOc3cccc(CNC4CCCCC4)c3)CC2)cc1C(F)(F)F
2. N#Cc1ccc(N2CCC(O)(CCOc3ccc(CN4CCCC4)cc3)CC2)cc1C(F)(F)F
3. Cc1cc(=O)oc2ccc(OCCC3(O)CCN(c4ccc(C#N)c(C(F)(F)F)c4)CC3)cc12

OUT:
["1.0%", "2.2%", "<1.0%"]

// for each molecule below, give its Human Androgen Receptor Binding (%) RBA R1881 = 100
1. N#Cc1ccc(N2CCC(O)(CCOc3ccc4oc(=O)ccc4c3)CC2)cc1C(F)(F)F
2. N#Cc1ccc(N2CCC(O)(CCOc3ccc(C(=O)N4CCOCC4)cc3)CC2)cc1Cl

OUT:
<1.0%
1.6%

###

System: rat prostate, seminal vesicle, levator ani muscle
Experiment: Systemic antiandrogenic activity in orchidectomized immature male rats with DHT implant
Type: in vivo
Conditions: Rattus norvegicus, 168 h, read-out: Lev Ani % inhibition, Table 2; rat +DHT, s.c. or p.o. (route not marked), levator ani, 0.5 mg/animal daily 7 days
Given measured inhibition in vivo at 0.5 mg, output met if it is greater than or equal to 20% and not met if not.

Recorded results for 5 molecules are shown here.
>  <MOLECULE>
CCCS(=O)(=O)c1ccc(OCCC2(O)CCN(c3ccc(C#N)c(C(F)(F)F)c3)CC2)cc1 [EM-8229]

>  <QUALITATIVE LABEL>
not met

$$$$
>  <MOLECULE>
CCS(=O)(=O)c1ccc(OCCC2(O)CCN(c3ccc(C#N)c(C(F)(F)F)c3)CC2)cc1 [EM-8230]

>  <QUALITATIVE LABEL>
met

$$$$
>  <MOLECULE>
CCC(CC)NC(CC)c1ccc(COCCN2CCN(c3ccc(C#N)c(C(F)(F)F)c3)CC2)cc1 (stereo not drawn) [EM-7792]

>  <QUALITATIVE LABEL>
not met

$$$$
>  <MOLECULE>
CCCC(c1ccc(OCCC2(O)CCN(c3ccc(C#N)c(C(F)(F)F)c3)CC2)cc1)N1CCCC1 (stereo not drawn) [EM-8096]

>  <QUALITATIVE LABEL>
met

$$$$
>  <MOLECULE>
CCC(NC1CCCCC1)c1ccc(COCCN2CCN(c3ccc(C#N)c(C(F)(F)F)c3)CC2)cc1 (stereo not drawn) [EM-7727]

>  <QUALITATIVE LABEL>
not met

$$$$

IN: Check if inhibition in vivo at 0.5 mg >= 20% (inclusive). Item: CS(=O)(=O)c1ccc(OCCC2(O)CCN(c3ccc(C#N)c(C(F)(F)F)c3)CC2)cc1 [EM-8159]
OUT: met

IN: Could you please find out whether CC(C)S(=O)(=O)c1ccc(OCCC2(O)CCN(c3ccc(C#N)c(C(F)(F)F)c3)CC2)cc1 [EM-8228] has inhibition in vivo at 0.5 mg that meets 20% or exceeds it?
OUT: met

IN: Is the recorded value of inhibition in vivo at 0.5 mg equal to or greater than 20% for this molecule? Cc1cc(=O)oc2ccc(OCCC3(O)CCN(c4ccc(C#N)c(C(F)(F)F)c4)CC3)cc12 [EM-8285]
OUT: not met

IN: Please tell me: is the molecule COC1(CCOc2ccc(CN3CCCC3)cc2C)CCN(c2ccc(C#N)c(C(F)(F)F)c2)CC1 [EM-8157] at or over 20% in terms of inhibition in vivo at 0.5 mg?
OUT: met

IN: Assess whether reported inhibition in vivo at 0.5 mg for N#Cc1ccc(N2CCC(O)(CCOc3ccc(S(=O)(=O)N4CCCC4)cc3)CC2)cc1C(F)(F)F [EM-8130] sits at 20% or higher.
OUT: not met

IN: Please indicate if the recorded inhibition in vivo at 0.5 mg for CCC(CC)NC(CC)c1ccc(OCCC2(O)CCN(c3ccc(C#N)c(C(F)(F)F)c3)CC2)c(C)c1 (stereo not drawn) [EM-8006] meets or exceeds 20%.
OUT: met

IN: # check: inhibition in vivo at 0.5 mg of N#Cc1ccc(N2CCC(O)(CCOc3ccc4oc(=O)ccc4c3)CC2)cc1C(F)(F)F [EM-8284] is greater than or equal to 20%
OUT: met

IN: // inclusive: inhibition in vivo at 0.5 mg at least 20%? input: CCC(c1ccc(OCCC2(O)CCN(c3ccc(C#N)c(C(F)(F)F)c3)CC2)cc1)N1CCCC1 (stereo not drawn) [EM-7893]
OUT: met

IN: Hi, just wondering whether N#Cc1ccc(N2CCC(O)(CCOc3cccc(CN4CCCC4)c3)CC2)cc1C(F)(F)F [EM-8059] shows inhibition in vivo at 0.5 mg of 20% or higher.
OUT: not met

IN: # check: inhibition in vivo at 0.5 mg of Cc1cc(CN2CCCC2)ccc1OCCC1(O)CCN(c2ccc(C#N)c(C(F)(F)F)c2)CC1 [EM-7657] is greater than or equal to 20%
OUT: met

IN: Check the entry N#Cc1ccc(N2CCC(O)(CCOc3ccc(-c4cccnc4)c(CN4CCCC4)c3)CC2)cc1C(F)(F)F [EM-8058] : does inhibition in vivo at 0.5 mg equal or exceed 20%?
OUT: not met

IN: Entry CCC(c1ccc(OCCC2(O)CCN(c3ccc(C#N)c(C(F)(F)F)c3)CC2)c(C)c1)N1CCCC1 (stereo not drawn) [EM-8003] : is its inhibition in vivo at 0.5 mg no less than 20%?
OUT: met

IN: Record Cc1cc(CN2CCCC2C)ccc1OCCC1(O)CCN(c2ccc(C#N)c(Cl)c2)CC1 (stereo not drawn) [EM-7791] ; criterion: inhibition in vivo at 0.5 mg no lower than 20%. Met?
OUT: not met

###

Kindly supply the reported Human Androgen Receptor Binding (%) RBA R1881 = 100 values for the records listed here.
Molecular target: Human Androgen Receptor (Homo sapiens)
Test: Androgen receptor binding assay ([3H]R1881, HAP) in cytosol of HEK-293 cells transfected with hAR
Settings: Table 2; relative to R1881 = 100, transfected cells
Numbers only, in %.

>  <COMPOUND>
CCC(NC1CCCCC1)c1ccc(OCCC2(O)CCN(c3ccc(C#N)c(C(F)(F)F)c3)CC2)cc1 (stereo not shown)

>  <STUDY TARGET>
Human Androgen Receptor (Homo sapiens)

>  <UNIT SPEC>
%

>  <MEASURED NUMBER>
14.4

$$$$
>  <COMPOUND>
CCC(c1ccc(OCCC2(O)CCN(c3ccc(C#N)c4ccccc34)CC2)cc1)N1CCCC1 (stereo not shown)

>  <STUDY TARGET>
Human Androgen Receptor (Homo sapiens)

>  <UNIT SPEC>
%

>  <MEASURED NUMBER>
10.5

$$$$
>  <COMPOUND>
Cc1cc(CN2CCOCC2)ccc1OCCC1(O)CCN(c2ccc(C#N)c(Cl)c2)CC1

>  <STUDY TARGET>
Human Androgen Receptor (Homo sapiens)

>  <UNIT SPEC>
%

>  <MEASURED NUMBER>
3.9

$$$$

IN: GET /values?readout=Human Androgen Receptor Binding (%) RBA R1881 = 100&item= CCCC(c1ccc(OCCC2(O)CCN(c3ccc(C#N)c(C(F)(F)F)c3)CC2)cc1)N1CCCC1 (stereo not shown)
OUT: 6.9
